tested_target: T1, VASP-EVH1 domain (UniProt P50552 1-115)
T1 construct: domain: EVH1
T1 sequence (P50552 1-115 limits assumed): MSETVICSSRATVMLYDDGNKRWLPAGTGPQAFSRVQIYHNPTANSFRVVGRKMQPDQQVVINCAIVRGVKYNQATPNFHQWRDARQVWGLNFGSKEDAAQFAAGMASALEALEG
protocol_text: ITC
[ ]: non-standard residue; d: D form. Phe(2-Cl) = N[C@@H](Cc1ccccc1Cl)C(=O)O
value_kind: Kd (µM)
Return type: number; implicit unit µM.

Ac-[Phe(2-Cl)]PPPP-OH (SMILES CC(=O)N[C@@H](Cc1ccccc1Cl)C(=O)N1CCC[C@H]1C(=O)N1CCC[C@H]1C(=O)N1CCC[C@H]1C(=O)N1CCC[C@H]1C(=O)O) [Ac-Phe(2-Cl)-PPPP-OH]: 18

Let us examine a further case.
In: # return recorded Kd for input Ac-FPPPP-OH (Starting ligand shortened to the FPPPP core motif; also called FPPPP core motif ligand) [Ac-FPPPP-OH]
Out: 1300
